This section presents molecules with their documented LD90 values.
tested on: Nilaparvata lugens; test: Insecticidal activity against Nilaparvata lugens (brown planthopper) second or third-instar nymphs fed on compound pre-treated rice seedlings assessed as insect mortality measured 5 days post compound treatment; format: functional
quantity.name: LD90 (ppm)

* O=[N+]([O-])/N=C1/NCCN1Cc1cnc(Cl)c(F)c1 [5-FLUOROIMIDACLOPRID] | 0.2
* O=[N+]([O-])/N=C1/NCCN1Cc1cnc(F)c(Cl)c1 | 50
* O=[N+]([O-])/N=C1\NCCN1Cc1ccc(Cl)nc1 [IMIDACLOPRID] | 0.2

* * *

experiment: Lipophilicity, logP of the compound at 25 degC; format: physicochemical; settings: octanol/water
This section presents compounds with their documented logP values.
quantity.name: logP

* O=[N+]([O-])/N=C1/NCCN1Cc1cnc(Cl)c(F)c1 | 0.79
* O=[N+]([O-])/N=C1/NCCN1Cc1cnc(F)c(Cl)c1 | 0.98
